// data source = patent US20260226084A1

Entries and their measured IC50 follow.
# Tested on: HPAF-II cells
# assay-protocol: HPAF-II Cell Proliferation Assay
# Format: cell-based
# condition-info: Homo sapiens, HPAF-II, HPAF-II cells; Table 2; read-out: Inhibition of cell proliferation in HPAF-II (IC50 class)
# Experimental: HPAF-II cells (catalog #CRL-1997) are obtained from the American Type Culture Collect (ATCC, Manassas, VA). […] Plates are read on a Synergy2 or equivalent reader (Biotek, Winooski, VT) using an excitation of 540 nm and an emission of 600 nm. Data is analyzed using Prism software (Graphpad, San Diego, CA) to calculate IC50 values.

{"compound": "Cc1ccc(NC(=O)c2cncc(C(F)(F)F)n2)cc1-c1cncc(-c2ccnc(NC(=O)C3CC3)c2)c1 [Example 5]", "measurement-target": "HPAF-II cells", "IC50": "1000 to 10000 nM"}
{"compound": "Cc1ccc(NC(=O)c2cc(C(C)(F)F)cnn2)cc1-c1ccnc(-c2ccsc2)c1 [Example 148]", "measurement-target": "HPAF-II cells", "IC50": "100 to 500 nM"}
{"compound": "COCC(=O)Nc1cc(-c2cc(-c3cc(NC(=O)c4cc(C(F)(F)F)cnn4)ccc3C)ccn2)ccn1 [Example 48]", "measurement-target": "HPAF-II cells", "IC50": "100 to 500 nM"}
{"compound": "Cc1ccc(NC(=O)c2cc(C3CC3)cnn2)cc1-c1ccnc(-c2cnsc2)c1 [Example 136]", "measurement-target": "HPAF-II cells", "IC50": "100 to 500 nM"}
{"compound": "Cc1ccc(NC(=O)c2ccc(C(F)(F)F)nn2)cc1-c1ccnc(-c2ccnc(NC(=O)C3CC3)c2)c1 [Example 19]", "measurement-target": "HPAF-II cells", "IC50": "100 to 500 nM"}
{"compound": "Cc1ccc(NC(=O)c2cc(C3CC3)cnn2)cc1-c1ccnc(-c2cnn(C)n2)c1 [Example 141]", "measurement-target": "HPAF-II cells", "IC50": "500 to 1000 nM"}
{"compound": "Cc1ccc(NC(=O)c2cncc(C(F)(F)F)c2)cc1-c1cncc(-c2cc(NC(=O)C3CC3)ncn2)c1 [Example 66]", "measurement-target": "HPAF-II cells", "IC50": "< 100 nM"}
{"compound": "O=C(Nc1cc(-c2ccnc(-c3ccnc(NC(=O)C4CC4)c3)c2)c(F)cc1F)c1cc(C(F)(F)F)cnn1 [Example 46]", "measurement-target": "HPAF-II cells", "IC50": "1000 to 10000 nM"}
{"compound": "CC(=O)Nc1cc(-c2cc(-c3cc(NC(=O)c4ccc(C(F)F)nc4)c(F)cc3C)ccn2)ccn1 [Example 20]", "measurement-target": "HPAF-II cells", "IC50": "< 100 nM"}
{"compound": "Cc1cnc(NC(=O)c2cc(C(F)(F)F)cnn2)cc1-c1ccnc(-c2ccnc(NC(=O)C3CC3)c2)c1 [Example 36]", "measurement-target": "HPAF-II cells", "IC50": "1000 to 10000 nM"}

Let us examine a further case.
I'd like to know its IC50. The compound in question is Cc1ccc(NC(=O)c2cc(C(F)(F)F)cnn2)cc1-c1cccc(-c2cc(NC(=O)C3CC3)ncn2)c1 [Example 11] 500 to 1000 nM
